The reported numbers originate from PubChem BioAssay.

Listed here are compounds together with their documented inhibition.
assay: 384-well plate pilot, post-Golgi transport modulator project, inhibition of yeast transport mutant growth (AID 636); conditions: absorbance 615 nm, about 18 h, stronger effect = higher value
Reported endpoint: inhibition (%)

| Compound | Reported endpoint | Result units | Measured |
| --- | --- | --- | --- |
| COc1cc2c3c(c1)/C(=C1/SC(NC(C)=O)=NC1=O)C(=O)N3C(C)(C)C=C2C | inhibition | % | -10 |
| COC(=O)c1sc(N)c(C(=O)OC)c1COC(=O)C1CC(=O)N(Cc2ccco2)C1 (stereo not drawn) | inhibition | % | -4.19 |
| CC(C(=O)NC(=O)NC1CCCCC1)N1CCN(c2ccccn2)CC1 (stereo not drawn) | inhibition | % | -2.4 |
| N#Cc1c(NCc2ccccc2)ccnc1NCc1cccnc1 | inhibition | % | -6.08 |
| O=C(CCn1cccc1)N1CCc2ccccc21 | inhibition | % | -2.08 |
| Cn1c(=O)c2c(ncn2CCO)n(C)c1=O | inhibition | % | 0 |
| CC(CN1CCOCC1)(NS(=O)(=O)c1ccccc1)c1ccccc1 (stereo not drawn) | inhibition | % | -1.56 |
| CC(=O)N(CCc1ccccc1C)Cc1cc2cc3c(cc2[nH]c1=O)OCO3 | inhibition | % | -2.03 |
| COC(=O)CNC(=O)COC(=O)c1cc(Cl)cc(Cl)c1N | inhibition | % | 0.82 |
| Cc1ccc(-c2nnc(SCC(=O)N3c4ccccc4NC(=O)C3(C)C)n2N)cc1 | inhibition | % | -3.38 |
| CCn1c(=O)cc(SCC(=O)Nc2ccc3c(c2)OCO3)c2ccccc21 | inhibition | % | -2.5 |
| Cc1nc(-c2coc3cc(OCC(=O)O)ccc3c2=O)cs1 | inhibition | % | -5.14 |
| NS(=O)(=O)c1ccc(NC(=O)N[C@@H](Cc2ccccc2)C(=O)O)cc1 | inhibition | % | -3.73 |
| Brc1ccc2[nH]c3nc(SCCN4CCOCC4)nnc3c2c1 | inhibition | % | 2.21 |
| Cc1cc(NC(=O)C23CCC(C)(C(=O)O2)C3(C)C)no1 (stereo not drawn) | inhibition | % | -0.78 |
| O=C(O)C(c1ccccc1)N1CCCC1 (stereo not drawn) | inhibition | % | -5.6 |
| CCOC(=O)c1c(C)[nH]c(C(=O)Cn2c(=O)c3c(ncn3CC)n(Cc3ccccc3)c2=O)c1C | inhibition | % | -6.35 |
| COC(=O)C1=C(C)N(Cc2ccco2)C(=O)C1 | inhibition | % | -7.53 |
| CCCn1cc(C(CC(=O)O)C(=O)O)c2ccccc21 (stereo not drawn) | inhibition | % | -7.33 |
| Cc1cc(S(=O)(=O)N(Cc2ccccc2)Cc2ccc(N(C)C)cc2)ccc1-n1cnnn1 | inhibition | % | -8.24 |
| CN(C)CCCC1(c2ccc(F)cc2)OCc2cc(C#N)ccc21 (stereo not drawn) | inhibition | % | -1.56 |
| COc1cccc(C(=O)Nc2ccc(NC(C)=O)cn2)c1 | inhibition | % | -5.27 |
| O=C(CSCc1n[nH]c(=O)[nH]1)NCCOc1cccc(Oc2ccccc2)c1 | inhibition | % | -1.2 |

----------
assay: HUVEC growth inhibition – cell-based, human, primary screen (AID 575); conditions: HUVEC proliferation, CellTiter-Glo luminescence, 72 h; at 10 µM; stronger effect = lower value;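 also: 100% = median of untreated cell wells with 0.1% DMSO on each plate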
Calls of active or inactive are those of the source.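 How the source made its calls: active means viability at or below 30% in both replicate assays; inconclusive means viability at or below 30% in just one of the two assays; inactive means the rest.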
Listed here are molecules together with their documented viability.
Reported endpoint: viability

| Molecule | Reported endpoint | Measured |
| --- | --- | --- |
| CCOc1cc2[nH]c(=O)n(CCCCC(=O)NCc3ccco3)c(=O)c2cc1OCC | viability | 90.7% (inactive) |
| CCCN(CCC)S(=O)(=O)c1ccc(C(=O)O)cc1 | viability | 96.2% (inactive) |
| CC(C)(C)NC(=O)CN(C(=O)C1CSC(=O)C1)c1ccc2c(c1)OCCO2 (stereo not given) | viability | 112% (inactive) |
| Cc1ccc(C)c(NS(=O)(=O)c2ccc(NC(=O)c3ccco3)cc2)c1 | viability | 78.5% (inactive) |
| COc1cccc(NC(=O)N(CCCN2CCOCC2)C(C)c2cc3cccc(OC)c3o2)c1 (stereo not given) | viability | 99.9% (inactive) |

----------
experiment: HUVEC growth inhibition – cell-based, human, primary screen (AID 575); conditions: HUVEC proliferation, CellTiter-Glo luminescence, 72 h; at 10 µM; stronger effect = lower value;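 also: 100% = median of untreated cell wells with 0.1% DMSO on each plate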
Reported endpoint: viability (%)

| Compound | Measured |
| --- | --- |
| Cn1c(=O)[nH]c(=O)c2c1nc(N1CCCCCC1)n2CCCSc1nc2ccccc2o1 | 66.4 |
| CCOc1ccc(-c2nc(C#N)c(N3CCN(C)CC3)o2)cc1 | 82.1 |
| CC1(C)CC(=O)C2=C(C1)N(Cc1ccco1)C(=O)C2(NC(=O)C1CCCCC1)C(F)(F)F (stereo not given) | 88 |
| COc1cccc(OCc2nnc(SCC(=O)OCc3ccccc3)o2)c1 | 108 |
| O=C1CC(c2ccccc2)CC(O)=C1C=NCCCN1CCOCC1 (stereo not given) | 100 |
| Cc1ccc(-c2nnn(CC(=O)N(CC(=O)NCC3CCCO3)c3ccccc3)n2)o1 (stereo not given) | 88.7 |
| O=C(CSc1nnc(-c2ccccc2Br)o1)Nc1cccc2ccccc12 | 101 |
| CC(C)OC(=O)CSc1nnc(-c2cccnc2)n1Cc1ccccc1 | 105 |
| CCOC(=O)c1c(NC(=O)COC(=O)c2c(C)noc2C)sc2c1CCC2 | 35.6 |
| O=C1OC(c2ccc(O)cc2)(c2ccc(O)cc2)c2ccccc21 | 48.8 |

----------
test: reversal of MRP1-mediated doxorubicin resistance, pilot screen, H69AR cells, doxorubicin co-treatment (AID 601); conditions: H69AR cells + 2 uM doxorubicin, CellTiter-Glo, 72 h; measured here: viability with 2 uM doxorubicin; at 10 µM; stronger effect = lower value
Listed here are compounds together with their documented viability.
Reported endpoint: viability (%)

| Query smiles | Reported endpoint | Measured |
| --- | --- | --- |
| O=C(CSCc1ccc(F)cc1)NC1CCCC1 | viability | 82.2 |
| CC(=O)[C@H]1[C@H](C#N)C[C@H]2[C@@H]3CC=C4C[C@@H](O)CC[C@]4(C)[C@H]3CC[C@@]21C | viability | 85.2 |
| CCOC(=O)c1[nH]c2ccc(Br)cc2c1NC(=O)CCN1CCC(C(=O)OCC)CC1 | viability | 33.2 |
| Cc1[nH]c2c(C)cccc2c(=O)c1Br | viability | 88.7 |
| Nc1ncnc2nc(Sc3ccc(Cl)cc3)[nH]c12 | viability | 91.1 |
| CCOc1ccc(C(=O)Nc2cc(C)on2)cc1OCC | viability | 89.6 |

----------
experiment: reversal of MRP1-mediated doxorubicin resistance, pilot screen, H69AR cells, doxorubicin co-treatment (AID 601); settings: H69AR cells + 2 uM doxorubicin, CellTiter-Glo, 72 h; at 10 µM; stronger effect = higher value
Listed here are compounds together with their documented differential viability (reversal).
Reported endpoint: differential viability (reversal) (%)

| Compound | Measured |
| --- | --- |
| N#C/C(C(=O)NCc1ccco1)=C1/SC(Cc2ccc(F)cc2)C(=O)N1c1ccccc1 (stereo unspecified) | -10.3 |
| CCN(CC)CCOC(=O)C1(C2CCCCC2)CCCCC1 | 3.1 |
| Cc1ccc(CC2SC(=O)NC2=O)cc1Cl (stereo unspecified) | 4.26 |
| Cc1nn(CC(O)Cn2c3c(c4ccccc42)CCN(C)C3=O)c(C)c1Br (stereo unspecified) | -12.1 |
| CCn1c(SCC(=O)Nc2cc(NC(C)=O)ccc2OC)nnc1-c1ccccn1 | 8.36 |
| Fc1cccc(-c2cc3nc4c(c(N5CCN(c6cnccn6)CC5)n3n2)CCCC4)c1 | 5.59 |
| CCOC(=O)CNC(=O)Cn1cnc2c(nnn2-c2cccc(Cl)c2)c1=O | -1.7 |
| Cc1ccc2nc3c(cc(C(=O)NCC4CCCO4)n3C)c(=O)n2c1 (stereo unspecified) | 7.85 |
| CCCNS(=O)(=O)c1ccc(OCC(=O)Nc2ccccc2F)cc1 | 8.17 |
| CC1(C)NC(=O)N(CC(O)CN2CCCCC2)C1=O (stereo unspecified) | -2.85 |
| CC1(C)CC(=O)C(C=NCc2ccc3c(c2)OCO3)=C(O)C1 | 5 |

----------
Listed here are compounds together with their documented viability.
test: reversal of MRP1-mediated doxorubicin resistance, pilot screen, H69AR cells, doxorubicin co-treatment (AID 601); conditions: H69AR cells + 2 uM doxorubicin, CellTiter-Glo, 72 h; measured here: viability with 2 uM doxorubicin; at 10 µM; stronger effect = lower value

| Compound | Result units | viability |
| --- | --- | --- |
| CCOC(=O)c1c(NC(=O)OC)sc2c1CCC2 | % | 87.9 |
| CC(=O)c1c(OCC(=O)O)ccc2c(C)cc(=O)oc12 | % | 88.7 |
| COC(=O)CS(=O)(=O)c1nnc([C@H](Cc2ccccc2)NC(=O)OC(C)(C)C)o1 | % | 0.69 |
| COc1ccc(-n2nnnc2SCC(=O)c2ccc(O)c(O)c2)cc1 | % | 76.6 |
| COc1cc2c(cc1NCc1ccccn1)oc1ccccc12 | % | 94.1 |
| CCOC(=O)C1CCN(S(=O)(=O)c2cccc(-c3csc(C)n3)c2)CC1 | % | 84.5 |
| CCOC(=O)CCC(=O)Nc1ccc(S(=O)(=O)N2CCCC2)cc1 | % | 96.3 |
| Cn1c(=O)n(C)c2cc(NC(=O)C(F)(F)F)ccc21 | % | 85.8 |
| Cc1nccn1CCCN1C(=O)OC2(CCCCC2)C1(C)O (stereo unspecified) | % | 102 |
| CC(=O)C1=C(O)C(=O)N(C2CCCCC2)C1c1ccccc1 (stereo unspecified) | % | 86.4 |
| O=C(Nc1ccccc1)N(Cc1cccnc1)Cc1ccco1 | % | 84.1 |
